Molecular target: F protein of wild type RSV A/Long (respiratory syncytial virus strain …, UniProt P12568 26-574)
Sequence (P12568 26-574): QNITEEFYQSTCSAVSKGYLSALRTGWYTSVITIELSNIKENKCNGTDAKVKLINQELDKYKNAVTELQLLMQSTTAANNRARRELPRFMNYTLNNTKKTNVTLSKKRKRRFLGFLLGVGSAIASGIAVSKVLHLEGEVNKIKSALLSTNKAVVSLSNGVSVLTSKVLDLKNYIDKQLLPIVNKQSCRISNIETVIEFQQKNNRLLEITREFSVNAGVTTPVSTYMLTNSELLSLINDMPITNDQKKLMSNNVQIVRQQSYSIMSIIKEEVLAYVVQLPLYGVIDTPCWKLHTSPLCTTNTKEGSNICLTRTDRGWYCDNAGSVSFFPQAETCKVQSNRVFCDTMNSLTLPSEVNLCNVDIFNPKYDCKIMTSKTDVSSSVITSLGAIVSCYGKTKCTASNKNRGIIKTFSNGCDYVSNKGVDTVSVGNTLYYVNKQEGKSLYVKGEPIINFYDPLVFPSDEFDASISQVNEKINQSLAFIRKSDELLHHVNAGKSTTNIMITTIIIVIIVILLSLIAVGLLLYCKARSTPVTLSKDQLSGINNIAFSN
Assay: cell-based or functional assay
READOUT LABEL: Mean IC50 (Curve), RSV microneutralization (µg/mL)
Write down the numeric answer in µg/mL and omit the unit.

Some entries whose results are on file:
BINDER	UOM	OBS VALUE
A4B4 (Fab fragment) (Fab, V domains shown) VH: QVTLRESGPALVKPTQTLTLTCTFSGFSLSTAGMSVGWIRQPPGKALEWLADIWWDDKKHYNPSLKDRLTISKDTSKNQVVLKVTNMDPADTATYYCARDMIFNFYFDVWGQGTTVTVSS VL: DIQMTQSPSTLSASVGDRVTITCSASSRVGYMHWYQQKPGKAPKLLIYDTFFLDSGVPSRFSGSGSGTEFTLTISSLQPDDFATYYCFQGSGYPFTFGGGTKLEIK	µg/mL	0.0414
A1e9 (monoclonal antibody) (antibody, V domains shown, mAb with framework and constant regions of SYNAGIS; also called Ale9) VH: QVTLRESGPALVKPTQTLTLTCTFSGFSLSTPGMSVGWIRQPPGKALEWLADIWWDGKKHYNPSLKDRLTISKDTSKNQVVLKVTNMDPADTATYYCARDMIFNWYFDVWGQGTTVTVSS VL: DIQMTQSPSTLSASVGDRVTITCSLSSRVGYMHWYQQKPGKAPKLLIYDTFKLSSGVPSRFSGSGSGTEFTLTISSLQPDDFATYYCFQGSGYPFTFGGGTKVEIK	µg/mL	0.0625
A13a11 (Fab fragment) (Fab, V domains shown, Fab) VH: QVTLRESGPALVKPTQTLTLTCTFSGFSLSTAGMSVGWIRQPPGKALEWLADIWWDDKKHYNPSLKDRLTISKDTSKNQVVLKVTNMDPADTATYYCARDMIFNWYFDVWGAGTTVTVSS VL: DIQMTQSPSTLSASVGDRVTITCSASSSVGYMHWYQQKPGKAPKLLIYDTYRHASGVPSRFSGSGSGTEFTLTISSLQPDDFATYYCFQGSGYPFTFGGGTKLEIK	µg/mL	0.12
P12f4 (Fab fragment) (Fab, V domains shown, Fab) VH: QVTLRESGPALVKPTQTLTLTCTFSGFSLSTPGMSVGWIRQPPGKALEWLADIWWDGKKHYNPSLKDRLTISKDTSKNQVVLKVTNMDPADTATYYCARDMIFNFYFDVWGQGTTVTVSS VL: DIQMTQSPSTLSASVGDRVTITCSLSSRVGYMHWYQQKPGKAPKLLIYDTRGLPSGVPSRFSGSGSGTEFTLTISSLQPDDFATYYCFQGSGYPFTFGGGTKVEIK	µg/mL	0.0464
A17d4 (monoclonal antibody) (antibody, V domains shown, mAb with framework and constant regions of SYNAGIS) VH: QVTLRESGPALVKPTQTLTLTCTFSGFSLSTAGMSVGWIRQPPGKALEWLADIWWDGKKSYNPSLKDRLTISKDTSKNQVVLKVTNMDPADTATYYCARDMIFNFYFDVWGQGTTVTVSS VL: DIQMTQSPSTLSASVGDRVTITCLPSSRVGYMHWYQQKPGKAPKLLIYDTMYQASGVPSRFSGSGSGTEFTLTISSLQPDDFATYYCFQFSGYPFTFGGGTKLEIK	µg/mL	0.0342

Need Mean IC50 (Curve), RSV microneutralization of A1e9 (Fab fragment) (Fab, V domains shown, Fab; also called *Ale9) VH: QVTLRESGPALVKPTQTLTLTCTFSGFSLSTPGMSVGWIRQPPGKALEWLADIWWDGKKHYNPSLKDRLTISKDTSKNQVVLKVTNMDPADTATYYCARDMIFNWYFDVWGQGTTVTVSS VL: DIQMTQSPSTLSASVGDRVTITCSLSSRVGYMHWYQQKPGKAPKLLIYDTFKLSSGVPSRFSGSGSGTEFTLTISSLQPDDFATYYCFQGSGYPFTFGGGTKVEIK , thanks.
0.157

Need Mean IC50 (Curve), RSV microneutralization of A1h5 (Fab fragment) (Fab, V domains shown) VH: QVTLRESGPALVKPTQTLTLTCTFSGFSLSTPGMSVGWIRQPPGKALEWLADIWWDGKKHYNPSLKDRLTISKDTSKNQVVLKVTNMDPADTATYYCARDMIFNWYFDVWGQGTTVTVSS VL: DIQMTQSPSTLSASVGDRVTITCSLSSSVGYMHWYQQKPGKAPKLLIYDTFFHRSGVPSRFSGSGSGTEFTLTISSLQPDDFATYYCFQGSGYPFTFGGGTKLEIK , thanks.
0.194

Need Mean IC50 (Curve), RSV microneutralization of P12f4 (monoclonal antibody) (antibody, V domains shown, mAb with framework and constant regions of SYNAGIS) VH: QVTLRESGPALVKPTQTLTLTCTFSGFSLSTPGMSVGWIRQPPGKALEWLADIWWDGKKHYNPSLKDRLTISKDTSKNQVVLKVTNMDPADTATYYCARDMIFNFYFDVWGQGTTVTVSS VL: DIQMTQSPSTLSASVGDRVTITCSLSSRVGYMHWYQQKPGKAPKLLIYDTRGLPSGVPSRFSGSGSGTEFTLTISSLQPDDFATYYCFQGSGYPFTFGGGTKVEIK , thanks.
0.0242

Need Mean IC50 (Curve), RSV microneutralization of A4B4 (monoclonal antibody) (antibody, V domains shown, mAb; also called A4B4/A4B4 (HC/LC)) VH: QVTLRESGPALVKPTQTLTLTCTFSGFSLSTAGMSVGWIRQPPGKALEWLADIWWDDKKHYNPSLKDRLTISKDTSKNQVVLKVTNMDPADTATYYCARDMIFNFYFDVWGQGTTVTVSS VL: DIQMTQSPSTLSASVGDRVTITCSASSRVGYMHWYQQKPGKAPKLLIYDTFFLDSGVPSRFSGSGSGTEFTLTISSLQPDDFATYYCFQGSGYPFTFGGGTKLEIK , thanks.
0.0171

Need Mean IC50 (Curve), RSV microneutralization of A12a6 (monoclonal antibody) (antibody, V domains shown, mAb with framework and constant regions of SYNAGIS) VH: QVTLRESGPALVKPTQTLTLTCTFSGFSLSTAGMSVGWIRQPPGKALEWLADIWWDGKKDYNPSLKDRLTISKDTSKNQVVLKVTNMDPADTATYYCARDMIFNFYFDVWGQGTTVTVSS VL: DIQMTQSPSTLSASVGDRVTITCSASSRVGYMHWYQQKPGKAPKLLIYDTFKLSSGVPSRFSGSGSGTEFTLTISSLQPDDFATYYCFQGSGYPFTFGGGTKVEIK , thanks.
0.0357
